- Test system: SW-620 colon
- procedure details: NCI tumour cell line growth inhibition, 48 h
Measured TGI accompanies every entry in the list below.

Guide cases for TGI, answers given:
INSERT INTO measurements (compound, measurement_target, reported_result) VALUES
  ('Nc1ccc(C(=O)O)c2[nH]c3ccccc3c(=O)c12', 'SW-620 colon', '> 100 µM'),
  ('CN(C)c1ccc(C=Nc2ccc(-c3nc4ccccc4o3)cc2)cc1', 'SW-620 colon', '> 100 µM'),
  ('COC(=O)C(NC(=O)C12CCC(C)(C(=O)O1)C2(C)C)c1cc(C(C)(C)C)c(O)c(C(C)(C)C)c1 (stereo not given)', 'SW-620 colon', '> 100 µM'),
  ('CC[C@]12C=CCN3CC[C@]4(C(=C(C(=O)OC)C1)Nc1ccccc14)[C@@H]32', 'SW-620 colon', '12.3 µM');

Proceed to the following item.
# compound COc1cc(C2c3cc4c(cc3[C@@H](OCCN)[C@H]3COC(=O)C23)OCO4)cc(OC)c1O (stereo not given in full) ; its TGI = 2.45 µM
